Reference source for all entries: ChEMBL document CHEMBL1123123

- Test system: Haemophilus influenzae
- method: The compound was tested for antibacterial activity against sensitive Haemophilus influenzae C.L.
- Format: functional
measure-name: MIC (µg/mL)
Numbers only here, please. The scale is µg/mL.

Input line: I would be grateful if you could share the reported MIC for CC1=C(C(=O)O)N2C(=O)C(NC(=O)C(N)c3cc4ccsc4s3)C2SC1 (configuration not stated) .
Output line: 8

Input line: Next record, please: CC1=C(C(=O)O)N2C(=O)C(NC(=O)C(N)c3cccc4sccc34)C2SC1 (configuration not stated)
Output line: 4

Input line: Next record, please: CC1=C(C(=O)O)N2C(=O)C(NC(=O)C(N)c3cc4sccc4s3)C2SC1 (configuration not stated)
Output line: 64

Input line: Next record, please: CC1=C(C(=O)O)N2C(=O)C(NC(=O)C(N)c3ccc4sccc4c3)C2SC1 (configuration not stated)
Output line: 8

Input line: Next record, please: CC1=C(C(=O)O)N2C(=O)C(NC(=O)C(N)c3cccc4c(C)csc34)C2SC1 (configuration not stated)
Output line: 8

Input line: Next record, please: CC1=C(C(=O)O)N2C(=O)[C@@H](NC(=O)[C@H](N)c3ccccc3)[C@H]2SC1 [CEPHALEXIN ANHYDROUS]
Output line: 8

Input line: Next record, please: CC(=O)N1CCc2cc(C(N)C(=O)NC3C(=O)N4C(C(=O)O)=C(C)CSC34)ccc21 (configuration not stated)
Output line: 16
